Test system: TA 98
Assay: Ames Test, strain TA 98
Conditions: TA 98, 50 μM
readoutKind: Fold increase (over baseline)

INPUT: Value wanted: Fold increase (over baseline) (TA 98) of entry O=C(Cn1ccnc1-c1ccccn1)Nc1ccc(-c2ccccc2)cc1 [Compound 4]
OUTPUT: 0.46

INPUT: Value wanted: Fold increase (over baseline) (TA 98) of entry CC(C)(C)Sc1ccc(NC(=O)Cn2ccnc2)cc1 [Compound 3]
OUTPUT: 0.46

INPUT: Value wanted: Fold increase (over baseline) (TA 98) of entry Cc1nc2c(c(N3CCCN(Cc4ccccc4)CC3)n1)CCCC2 [Compound 31]
OUTPUT: 0.2

INPUT: Value wanted: Fold increase (over baseline) (TA 98) of entry CC(C)c1nccn1CC(=O)Nc1ccc(-c2ccccc2)cc1 [Compound 2]
OUTPUT: 0.3

INPUT: Value wanted: Fold increase (over baseline) (TA 98) of entry O=C(Cn1cnc2c1CCCC2)Nc1ccc(-c2ccccc2)cc1 [Compound 1]
OUTPUT: 0.46
